# Test system: T1, human Trop-2 expressed on cell surface (human, UniProt P09758 27-323)
# T1 sequence (looked up): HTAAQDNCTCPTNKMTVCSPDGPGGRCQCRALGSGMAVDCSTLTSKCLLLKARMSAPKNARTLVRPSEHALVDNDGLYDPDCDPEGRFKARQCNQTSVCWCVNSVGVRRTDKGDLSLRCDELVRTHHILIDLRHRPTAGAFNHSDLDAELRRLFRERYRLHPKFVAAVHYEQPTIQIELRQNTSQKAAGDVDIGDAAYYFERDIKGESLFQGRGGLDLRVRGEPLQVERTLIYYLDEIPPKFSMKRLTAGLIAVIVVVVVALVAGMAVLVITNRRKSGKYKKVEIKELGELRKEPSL
# Experimental details: cell-based or functional assay
Experimental endpoint: Internalization %, MDA-MB-231, 0.25 µg/ml, 2 h (%)

- 63H3 (antibody, V domains shown, Rabbit-derived clone; LEM construct: VH + rabbit IgG CH1 + human IgG1 CH2-CH3) VH: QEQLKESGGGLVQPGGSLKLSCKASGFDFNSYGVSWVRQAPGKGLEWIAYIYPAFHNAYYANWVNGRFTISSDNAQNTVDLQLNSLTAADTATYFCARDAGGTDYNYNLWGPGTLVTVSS VL: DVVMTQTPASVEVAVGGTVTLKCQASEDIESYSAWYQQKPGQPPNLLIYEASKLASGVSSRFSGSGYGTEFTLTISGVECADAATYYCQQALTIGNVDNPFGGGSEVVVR: 40
- 65D5 (antibody, V domains shown, Rabbit-derived clone; LEM construct: VH + rabbit IgG CH1 + human IgG1 CH2-CH3) VH: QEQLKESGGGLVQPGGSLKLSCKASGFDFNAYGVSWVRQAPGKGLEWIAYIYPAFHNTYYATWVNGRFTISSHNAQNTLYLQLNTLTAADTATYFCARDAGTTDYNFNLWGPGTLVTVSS VL: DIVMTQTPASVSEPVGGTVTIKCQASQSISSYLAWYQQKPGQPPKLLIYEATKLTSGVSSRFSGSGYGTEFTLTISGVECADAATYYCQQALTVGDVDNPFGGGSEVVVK: 34
- 10A9 (antibody, V domains shown, Rabbit-derived clone; LEM construct: VH + rabbit IgG CH1 + human IgG1 CH2-CH3) VH: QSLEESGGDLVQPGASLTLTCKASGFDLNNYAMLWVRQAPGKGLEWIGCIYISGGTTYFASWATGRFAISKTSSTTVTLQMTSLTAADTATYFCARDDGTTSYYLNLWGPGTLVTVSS VL: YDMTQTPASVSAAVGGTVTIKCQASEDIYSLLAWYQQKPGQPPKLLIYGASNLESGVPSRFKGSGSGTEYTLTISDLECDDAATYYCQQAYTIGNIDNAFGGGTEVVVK: 54
